Tested on: Venturia inaequalis
Experiment: Fungicidal test, Venturia inaequalis (VENTIN) on apples, PRCO; further: test concentration or dose not given here
Assay type: in vivo
Conditions: METHOD 2 (unbanded)
Note to self: values exactly at 10 are true. So VENTIN 1 d Prot/Foir PRCO at or above 10 is true, below is false.

Incoming: Assess whether reported VENTIN 1 d Prot/Foir PRCO for Cc1nsc(N(C(=O)Cc2ccc3oc(CC(C)(C)C)nc3c2)C(C)C)c1Cl [15(N3)] sits at 10 or higher.
Outgoing: false

Incoming: Reported VENTIN 1 d Prot/Foir PRCO at or above 10? CCN(C)c1nc2cc(CC(=O)Nc3snc(C)c3Cl)ccc2o1 [180(A3)]
Outgoing: false

Incoming: # bool: VENTIN 1 d Prot/Foir PRCO of CC(C)=Cc1nc2cc(CC(=O)Nc3snc(C)c3Cl)ccc2o1 [46(A3)] >= 10
Outgoing: true

Incoming: Test whether the compound Cc1nc2cc(CC(=O)Nc3snc(C)c3Br)ccc2o1 [2(A4)] records VENTIN 1 d Prot/Foir PRCO of 10 or higher.
Outgoing: true

Incoming: Could you verify whether the entry Cc1nsc(NC(=O)Cc2ccc3oc(COc4ccccc4)nc3c2)c1Cl [140(A3)] shows VENTIN 1 d Prot/Foir PRCO of no less than 10?
Outgoing: true

Incoming: For this compound, is measured VENTIN 1 d Prot/Foir PRCO 10 or higher? Cc1nsc(NC(=O)Cc2ccc3oc(C(C)Cl)nc3c2)c1Cl (racemic) [93(A3)]
Outgoing: false

Incoming: Reported VENTIN 1 d Prot/Foir PRCO reaches at least 10 for Cc1nsc(NC(=O)Cc2ccc3oc(CC(C)(C)C)nc3c2)c1Br [15(A4)] ?
Outgoing: true

Incoming: For this compound, is measured VENTIN 1 d Prot/Foir PRCO 10 or higher? CCC(C)c1nc2cc(CC(=O)Nc3snc(C)c3Cl)ccc2o1 (stereo not shown) [10(A3)]
Outgoing: true

Incoming: Hello, I need to know if CCN(C(=O)Cc1ccc2oc(CC(C)(C)C)nc2c1)c1snc(C)c1Cl [15(C3)] has measured VENTIN 1 d Prot/Foir PRCO not below 10. Thanks!
Outgoing: true

Incoming: Identify whether the reported VENTIN 1 d Prot/Foir PRCO of the following compound is 10 or greater: Cc1nsc(N(C)C(=O)Cc2ccc3oc(CC(C)(C)C)nc3c2)c1Cl [15(B3)]
Outgoing: false

Incoming: Tell me whether VENTIN 1 d Prot/Foir PRCO is at least 10 here: Cc1nsc(NC(=O)Cc2ccc3oc(SC(C)(C)C)nc3c2)c1Cl [224(A3)]
Outgoing: true

Incoming: I'd appreciate it if you could say whether Cc1nsc(NC(=O)Cc2ccc3oc(-c4ccccc4)nc3c2)c1Cl [248(A3)] has VENTIN 1 d Prot/Foir PRCO at least equal to 10.
Outgoing: true

Incoming: Decide: is the reported value of VENTIN 1 d Prot/Foir PRCO for Cc1nsc(NC(=O)Cc2ccc3oc(C(F)(F)C(F)F)nc3c2)c1Cl [79(A3)] equal to or greater than 10?
Outgoing: true

Incoming: Check if VENTIN 1 d Prot/Foir PRCO >= 10 (inclusive). Item: Cc1nsc(NC(=O)Cc2ccc3oc(-c4cc(Cl)cc(Cl)c4)nc3c2)c1Cl [261(A3)]
Outgoing: false

Incoming: Given the entry Cc1nsc(NC(=O)Cc2ccc3oc(-c4c(F)c(F)c(F)c(F)c4F)nc3c2)c1Cl [287(A3)] , answer whether its VENTIN 1 d Prot/Foir PRCO meets or surpasses 10.
Outgoing: false

Incoming: Assess whether reported VENTIN 1 d Prot/Foir PRCO for Cc1nsc(NC(=O)Cc2ccc3oc(C=Cc4ccc([N+](=O)[O-])cc4)nc3c2)c1Cl [63(A3)] sits at 10 or higher.
Outgoing: true

Incoming: State whether the measured VENTIN 1 d Prot/Foir PRCO reaches 10, counting equality as reaching it, for Cc1nsc(NC(=O)Cc2ccc3oc(CC4CCCC4)nc3c2)c1Cl [42(A3)]
Outgoing: true

Incoming: Has CCC(Cl)c1nc2cc(CC(=O)Nc3snc(C)c3Cl)ccc2o1 (racemic) [95(A3)] a recorded VENTIN 1 d Prot/Foir PRCO greater than or equal to 10?
Outgoing: true
